test: Binding affinity to Cyclophilin A/Avi-tagged KRAS G12V mutant (1 to 169 residues) (unknown origin) assessed as dissociation constant by SPR analysis; design: species or system Homo sapiens
pKd: −log10 of the molar value.
measure.name: pKd

[in] Answer with the recorded pKd of CCn1c(-c2cccnc2[C@H](C)OC)c2c3cc(ccc31)-c1cccc(c1)C[C@H](NC(=O)[C@H](C(C)C)N(C)C(C)=O)C(=O)N1CCC[C@H](N1)C(=O)OCC(C)(C)C2 only.
[out] 5.31

P = CCn1c(-c2cccnc2[C@H](C)OC)c2c3cc(ccc31)-c1cccc(c1)C[C@H](NC(=O)[C@H](C(C)C)N(C)C(=O)[C@H]1CCN(C(C)=O)C1)C(=O)N1CCC[C@H](N1)C(=O)OCC(C)(C)C2
Q = CCn1c(-c2cccnc2[C@H](C)OC)c2c3cc(ccc31)-c1csc(n1)C[C@H](NC(=O)[C@H](C(C)C)N(C)C(C)=O)C(=O)N1CCC[C@H](N1)C(=O)OCC(C)(C)C2
[in] Please indicate which item has the smaller measured pKd: P versus Q Respond using the label that marks the chosen record.
[out] P

* * *

Each entry below carries its measured Kd, system: Peptidyl-prolyl cis-trans isomerase A (Homo sapiens, UniProt P62937).
Sequence (P62937 whole entry): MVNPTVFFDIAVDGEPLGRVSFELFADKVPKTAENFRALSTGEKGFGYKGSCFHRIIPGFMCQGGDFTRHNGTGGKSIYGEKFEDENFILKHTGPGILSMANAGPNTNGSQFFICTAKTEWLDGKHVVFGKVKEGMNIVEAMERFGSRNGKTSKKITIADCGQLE
measure.name: Kd (nM)

[in] Answer with the recorded Kd of CCn1c(-c2cc(N3CCN(C)CC3)cnc2[C@H](C)OC)c2c3cc(ccc31)-c1csc(n1)C[C@H](NC(=O)[C@H]1[C@@H]3COC[C@@H]31)C(=O)N1CCC[C@H](N1)C(=O)OCC(C)(C)C2 only.
[out] 60

[in] Answer with the recorded Kd of CCn1c(-c2cccnc2[C@H](C)OC)c2c3cc(ccc31)-c1csc(n1)C[C@H](NC(=O)[C@H](C(C)C)N(C)C(=O)N(C)C)C(=O)N1CCC[C@H](N1)C(=O)OCC(C)(C)C2 only.
[out] 468

[in] Answer with the recorded Kd of CCn1c(-c2cccnc2[C@H](C)OC)c2c3cc(ccc31)-c1cccc(c1)C[C@H](NC(=O)[C@H](C(C)C)N(C)C(C)=O)C(=O)N1CCC[C@H](N1)C(=O)OCC(C)(C)C2 only.
[out] 1150

I = CCn1c(-c2cccnc2[C@H](C)OC)c2c3cc(ccc31)-c1csc(n1)C[C@H](NC(=O)[C@H](C(C)C)N(C)C(=O)N1CC(OC)C1)C(=O)N1CCC[C@H](N1)C(=O)OCC(C)(C)C2
II = CCn1c(-c2cc(N3CCN(CCOC)CC3)cnc2[C@H](C)OC)c2c3cc(ccc31)-c1csc(n1)C[C@H](NC(=O)[C@H]1C[C@@H]1C)C(=O)N1CCC[C@H](N1)C(=O)OCC(C)(C)C2
[in] Please indicate which item has the smaller measured Kd: I versus II Respond using the label that marks the chosen record.
[out] II
(II: 130 nM, I: 283 nM)

* * *

assay: Inhibition of ERK1/2 phosphorylation in human CAPAN-1 cells harboring KRAS G12V mutant incubated for 4 hrs by AlphaLISA assay; format: cell-based; conditions: CAPAN-1, 4 h
measure.name: EC50 (nM)

[in] Answer with the recorded EC50 of CCn1c(-c2cccnc2[C@H](C)OC)c2c3cc(ccc31)-c1csc(n1)C[C@H](NC(=O)[C@H]1CCO1)C(=O)N1CCC[C@H](N1)C(=O)OCC(C)(C)C2 only.
[out] 124

[in] Answer with the recorded EC50 of CCn1c(-c2cccnc2[C@H](C)OC)c2c3cc(ccc31)-c1csc(n1)C[C@H](NC(=O)[C@H](C(C)C)N(C)C(=O)N1CC(OC)C1)C(=O)N1CCC[C@H](N1)C(=O)OCC(C)(C)C2 only.
[out] 3

[in] Answer with the recorded EC50 of CCn1c(-c2cccnc2[C@H](C)OC)c2c3cc(ccc31)-c1csc(n1)C[C@H](NC(=O)[C@H](C(C)C)N(C)C(=O)OC)C(=O)N1CCC[C@H](N1)C(=O)OCC(C)(C)C2 only.
[out] 8

1 = CCn1c(-c2cc(N3CCN(C)CC3)cnc2[C@H](C)OC)c2c3cc(ccc31)-c1csc(n1)C[C@H](NC(=O)[C@H]1[C@@H]3COC[C@@H]31)C(=O)N1CCC[C@H](N1)C(=O)OCC(C)(C)C2
2 = CCn1c(-c2cccnc2[C@H](C)OC)c2c3cc(ccc31)-c1csc(n1)C[C@H](NC(=O)[C@H]1[C@@H]3COC[C@@H]31)C(=O)N1CCC[C@H](N1)C(=O)OCC(C)(C)C2
[in] Of 1 and 2 , which one carries the higher reported EC50? Respond using the label that marks the chosen record.
[out] 2
(2: 11 nM, 1: 0.3 nM)

* * *

test system: CAPAN-1; experiment: Cytotoxicity against human CAPAN-1 cells harboring KRAS G12V mutant cultured as 2D cells assessed as reduction in cell viability incubated for 120 hrs by CellTiter-Glo luminescence assay; type: functional, cell-based; conditions: CAPAN-1, 120 h
measure.name: EC50 (nM)
Lab book: enter the figure in nM, no units written.

[in] Answer with the recorded EC50 of CCn1c(-c2cccnc2[C@H](C)OC)c2c3cc(ccc31)-c1csc(n1)C[C@H](NC(=O)[C@H]1C[C@@H]1C)C(=O)N1CCC[C@H](N1)C(=O)OCC(C)(C)C2 only.
[out] 129

[in] Answer with the recorded EC50 of CCn1c(-c2cc(N3CCN(C)CC3)cnc2[C@H](C)OC)c2c3cc(ccc31)-c1csc(n1)C[C@H](NC(=O)[C@H]1C[C@@H]1C)C(=O)N1CCC[C@H](N1)C(=O)OCC(C)(C)C2 only.
[out] 1.3

[in] Answer with the recorded EC50 of CCn1c(-c2cccnc2[C@H](C)OC)c2c3cc(ccc31)-c1csc(n1)C[C@H](NC(=O)[C@H](C(C)C)N(C)C(=O)OC)C(=O)N1CCC[C@H](N1)C(=O)OCC(C)(C)C2 only.
[out] 28

Moving on to another compound below.
[in] Answer with the recorded EC50 of CCn1c(-c2cccnc2[C@H](C)OC)c2c3cc(ccc31)-c1csc(n1)C[C@H](NC(=O)[C@H]1[C@@H]3COC[C@@H]31)C(=O)N1CCC[C@H](N1)C(=O)OCC(C)(C)C2 only.
[out] 69

* * *

assay: Lipophilicity, logD of compound at pH 7.4 by Agilent 1290 II uPLC analysis; type: physicochemical; conditions: buffer
measure.name: logD

[in] Answer with the recorded logD of CCn1c(-c2cccnc2[C@H](C)OC)c2c3cc(ccc31)-c1csc(n1)C[C@H](NC(=O)C1CC1)C(=O)N1CCC[C@H](N1)C(=O)OCC(C)(C)C2 only.
[out] 4.8

[in] Answer with the recorded logD of CCn1c(-c2cc(N3CCN(C)CC3)cnc2[C@H](C)OC)c2c3cc(ccc31)-c1csc(n1)C[C@H](NC(=O)[C@H]1CCO1)C(=O)N1CCC[C@H](N1)C(=O)OCC(C)(C)C2 only.
[out] 4.3

[in] Answer with the recorded logD of CCn1c(-c2cc(N3CCN(C4CC4)CC3)cnc2[C@H](C)OC)c2c3cc(ccc31)-c1csc(n1)C[C@H](NC(=O)[C@H]1C[C@@H]1C)C(=O)N1CCC[C@H](N1)C(=O)OCC(C)(C)C2 only.
[out] 5.3

[in] Answer with the recorded logD of CCn1c(-c2cccnc2[C@H](C)OC)c2c3cc(ccc31)-c1csc(n1)C[C@H](NC(=O)[C@H]1C[C@@H]1C)C(=O)N1CCC[C@H](N1)C(=O)OCC(C)(C)C2 only.
[out] 4.7

[in] Answer with the recorded logD of CCn1c(-c2cc(N3CCN(CCOC)CC3)cnc2[C@H](C)OC)c2c3cc(ccc31)-c1csc(n1)C[C@H](NC(=O)[C@H]1C[C@@H]1C)C(=O)N1CCC[C@H](N1)C(=O)OCC(C)(C)C2 only.
[out] 4.7

[in] Answer with the recorded logD of CCn1c(-c2cccnc2[C@H](C)OC)c2c3cc(ccc31)-c1csc(n1)C[C@H](NC(=O)[C@H](C(C)C)N(C)C(=O)N1CC(OC)C1)C(=O)N1CCC[C@H](N1)C(=O)OCC(C)(C)C2 only.
[out] 4.8

[in] Answer with the recorded logD of CCn1c(-c2cc(N3CCN(C)CC3)cnc2[C@H](C)OC)c2c3cc(ccc31)-c1csc(n1)C[C@H](NC(=O)[C@H]1[C@@H]3COC[C@@H]31)C(=O)N1CCC[C@H](N1)C(=O)OCC(C)(C)C2 only.
[out] 4.1

[in] Answer with the recorded logD of CCn1c(-c2cccnc2[C@H](C)OC)c2c3cc(ccc31)-c1csc(n1)C[C@H](NC(=O)[C@H]1CCO1)C(=O)N1CCC[C@H](N1)C(=O)OCC(C)(C)C2 only.
[out] 4.3

[in] Answer with the recorded logD of CCn1c(-c2cc(N3CCN(C4CC4)CC3)cnc2[C@H](C)OC)c2c3cc(ccc31)-c1csc(n1)C[C@H](NC(=O)[C@H]1[C@@H]3COC[C@@H]31)C(=O)N1CCC[C@H](N1)C(=O)OCC(C)(C)C2 only.
[out] 5.2

[in] Answer with the recorded logD of CCn1c(-c2cc(N3CCN(C)CC3)cnc2[C@H](C)OC)c2c3cc(ccc31)-c1csc(n1)C[C@H](NC(=O)[C@H]1C[C@@H]1C)C(=O)N1CCC[C@H](N1)C(=O)OCC(C)(C)C2 only.
[out] 4.5

[in] Answer with the recorded logD of CCn1c(-c2cc(N3CC4CC(C3)N4C)cnc2[C@H](C)OC)c2c3cc(ccc31)-c1csc(n1)C[C@H](NC(=O)[C@H]1C[C@@H]1C)C(=O)N1CCC[C@H](N1)C(=O)OCC(C)(C)C2 only.
[out] 3.9

Recorded values, source ChEMBL document CHEMBL6115029.
